Here, each record is paired with measured max response data.
assay: qHTS Assay for Lipid Storage Modulators (AID 1519); settings: Drosophila S3 cells, BODIPY lipid droplet/cell ratio, laser cytometry; measured here: lipid channel max response; cells loaded with oleic acid
Results filed as inconclusive are left out.
Give the quantity in %, number only.

Use these answered entries as a reference point.
N#Cc1cccc(-c2ccc3ncnc(NCc4ccccc4)c3c2)c1 | 2.9
C[C@@H]1c2cccc(O)c2C(O)=C2C(=O)[C@@]3(O)C(O)=C(C(N)=O)C(=O)[C@@H](N(C)C)[C@@H]3[C@@H](O)[C@@H]21 | -6.74
COc1ccc(NC(=O)N2CCC3(CC2)CCN(C(=O)c2cc(C(F)(F)F)cc(C(F)(F)F)c2)CC3)cc1 | -1.48
CC(=O)O[C@]1(C(C)=O)CC[C@@H]2[C@@H]3C=C(Cl)C4=CC(=O)[C@H]5C[C@@H]5[C@]4(C)[C@H]3CC[C@]21C | -7.45
COc1ccc(CNc2nc(-c3ccoc3)nc3ccccc23)c(OC)c1 | 2.43

Query: Query (compound): O=C(c1cccc(F)c1)N1CCC2(CC1)CN(c1ncccn1)C2 ; field requested: max response
Reply: 3.53

Query: I have this compound here, OCCN1CCN(CC/C=C2\c3ccccc3Sc3ccc(C(F)(F)F)cc32)CC1 , and I need its recorded max response.
Reply: -14.8

Query: Tell me the measured max response of COc1ccc(-n2c(=O)c(-c3cn(C)c4ccccc34)nc3cnc(N4CCNCC4)nc32)cc1 , please.
Reply: 26.4

Query: Item CN(C)CC/C=C1\c2ccccc2CSc2ccccc21 has what recorded max response?
Reply: -19.8

Query: Requested field: max response. Item: Cc1noc(C)c1C(=O)N1CCC2(CC1)CN(Cc1cc(C(F)(F)F)cc(C(F)(F)F)c1)C2
Reply: -4.57

Query: Can you look up the measured max response of O=C(O)c1cc(O)c2c(c1)C(=O)c1cc(O)cc(O)c1C2=O for me?
Reply: 36.4

Query: Please look up its max response: COCC(=O)N1CCC2(CCCN(c3ccccc3)C2)CC1
Reply: 6.05

Query: Consider the compound shown here: CN(C)c1ccc(-c2cncnc2NCc2ccccc2)cc1 What is its recorded max response?
Reply: 16.1

Query: Returns the measured max response for the input compound. Input: N#Cc1ccc(CN2CC3(CCN(C(=O)c4cnccn4)CC3)C2)cc1
Reply: 20.2

Query: Quick one: max response of O=C(c1cnccn1)N1CCC2(CC1)CN(C(c1ccccc1)c1ccccc1)C2 ?
Reply: 10.5

Query: Name the recorded max response for COc1ncc2nc(-c3ccccc3)c(=O)n(C[C@H]3CCCO3)c2n1 .
Reply: 14.7

Query: Query (compound): COc1ccc2[nH]cc(CCNc3cc(-c4ccoc4)ncn3)c2c1 ; field requested: max response
Reply: 17.6

Query: What value of max response has been reported for the following compound? COc1ccc(-c2cc(=O)c3c(OC)c(OC)c(OC)c(OC)c3o2)cc1OC
Reply: -19.5

Query: // max response lookup, key: C[C@@](N)(Cc1ccc(O)c(O)c1)C(=O)O
Reply: -7.65

Query: max response; subject: COc1ccccc1CN1CCCC2(CCN(C(C)=O)CC2)C1
Reply: 13

Query: So what does the record say about max response for O=c1c(-c2ccc(F)cc2)nc2cnc(N3CCNCC3)nc2n1Cc1cccs1 ?
Reply: 9.26

Query: Which value of max response has been reported for O=C(c1cccc(F)c1)N1CCC[C@@]2(CCN(c3ncccn3)C2)C1 in the records?
Reply: 15.7

Query: So what does the record say about max response for O=c1c(-c2ccccc2)nc2cnc(Oc3cccc(Cl)c3)nc2n1C[C@H]1CCCO1 ?
Reply: -2.39

Query: // lookup max response for N#Cc1ccc(CN2CCC3(CC2)CCN(C(=O)c2cccc(F)c2)CC3)cc1
Reply: 9.63

Query: Quick one: max response of CCCCCC/C=C\CCCCCCCc1cccc(O)c1C(=O)O ?
Reply: 17.7

Query: Need max response, item N#Cc1cccc(NC(=O)N2CC3(CCN(C(=O)c4ccco4)CC3)C2)c1
Reply: 11.7

Query: Item under review: c1ccc2c(Nc3ccncc3)nc(-c3ccoc3)nc2c1 . Reported max response?
Reply: 22.2

Query: max response lookup needed for COc1ccc(C(=O)N2CCC[C@@]3(CCN(c4ccncc4)C3)C2)cc1 , thanks.
Reply: -10.7

----------
Assay: qHTS Assay for Lipid Storage Modulators (AID 1519)
Settings: Drosophila S3 cells, BODIPY lipid droplet/cell ratio, laser cytometry; measured here: cell count channel max response; cells loaded with oleic acid
Method: NIH Molecular Libraries Probe Production Centers Network [MLPCN] NIH Chemical Genomics Center [NCGC] Assay Submitter (PI): Beller, Mathias; Max-Planck-Institut fur Biophysikalische Chemie […] We dispensed 4 uL of cells at 1.25 x 10^6 cells/mL into LoBase Aurora COC 1,536-well plates (black walled, clear bottom) with a bottle-valve solenoid-based dispenser (Aurora) to obtain 5,000 cells/well. […] The ratio of the total intensity in PMT channel 1 over total intensity of channel 3 was also calculated. […]
Inconclusive results are not listed.
readoutType: max response (%)
Please give a number only; it is taken to be in %.

Query: Recorded max response of CC(C)CN1CCC2(CC1)CCN(S(=O)(=O)c1ccccc1)CC2 , please.
Reply: -0.0585

Query: Tell me the measured max response of COc1ccc(Oc2ncc3nc(CCc4ccccc4)c(=O)n(C)c3n2)cc1 , please.
Reply: 9.28

Query: What value of max response has been reported for the following molecule? COc1ccc(NC(=O)N2CC3(CCN(C(=O)c4cc(C(F)(F)F)cc(C(F)(F)F)c4)CC3)C2)cc1
Reply: 12.2

Query: So what does the record say about max response for CC(C)(O/N=C(\C(=O)N[C@@H]1C(=O)N2C(C(=O)[O-])=C(C[n+]3ccccc3)CS[C@@H]12)c1csc(N)n1)C(=O)O ?
Reply: -1.74

Query: GET /values?readout=max response&item= COc1ncc2nc(-c3ccccc3)c(=O)n(C[C@H]3CCCO3)c2n1
Reply: 9.98

Query: # max response lookup, item CCCCCN(CCCCC)C(=O)[C@H](CCC(=O)O)NC(=O)c1ccc(Cl)c(Cl)c1
Reply: -23.7

----------
target: Ubiquitin carboxyl-terminal hydrolase 1 (Homo sapiens); assay: Inhibitors of USP1/UAF1: Pilot qHTS (AID 504865); conditions: purified USP1/UAF1, Ub-rhodamine cleavage fluorescence; series mostly up to 54.9 µM;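 note: rhodamine fluorescence freed from ubiquitin-rhodamine substrate followed over time; top concentration of the series differs between compounds; % is set by controls: 0 for no effect and ±100 for the full control effect; nearly all actives have a fitted effect of over 35% in size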
Results filed as inconclusive are left out. Activity calls are given as the source filed them. The call rests on the fitted dose curve; in most records, active means well fitted inhibition curve with a large enough effect; inconclusive means small, poorly fitted or top-dose-only effect; inactive means flat fitted curve, though single readings scatter.
Response enum: T = active, F = inactive

Query: Could you check what this test reported for Cc1noc(C)c1-c1cncnc1Nc1ccccc1 ?
Reply: F

Query: Record lookup: outcome of this test for CN(C)C(=O)c1ccc(-c2nc(NCc3ccccc3)c3ccccc3n2)cc1 ?
Reply: F

Query: What outcome does the record of this test show for O=c1c(-c2ccc(F)cc2)nc2cnc(Oc3cccc(Cl)c3)nc2n1C[C@H]1CCCO1 ?
Reply: F

Query: Fill in: this test's call for CN(Cc1ccco1)c1ccnc(-c2cccc(C#N)c2)n1 is ___
Reply: F

Query: Assay result, entry CN1CCN(c2ncc3nc(CCc4ccccc4)c(=O)n(C)c3n2)CC1 — outcome?
Reply: F

----------
System: CP185
Test: qHTS profiling for inhibitors of Plasmodium falciparum proliferation (AID 504749); note: nearly all actives have a fitted effect of over 60% in size
Details: P. falciparum in erythrocytes, SYBR Green DNA, 72 h; series mostly up to 12.8 µM
Procedure: NIH National Institute of Allergy and Infectious Diseases [NIAID] NIH Chemical Genomics Center [NCGC] […] Because mature erythrocytes lack DNA, only Plasmodium-derived DNA is detected. NCGC Assay Protocol Summary: The SYBR Green viability assay was adapted from a method described previously (Plouffe et al., 2008). […] The following morning, fluorescence intensity at 485(14) nm excitation and 535(25) nm emission wavelengths was measured on an EnVision (Perkin Elmer) plate reader. […]
Results filed as inconclusive are left out. Activity calls are given as the source filed them. Calls come from the whole dose curve; as a rule, active = well fitted inhibition curve with a large enough effect; inconclusive = small, poorly fitted or top-dose-only effect; inactive = flat fitted curve, though single readings scatter.
Use one of these outcomes when replying: active, inactive

Query: Called result for C[C@@H](CN(C)C)CN1c2ccccc2CCc2ccccc21
Reply: inactive

Query: Test call, this compound: C[n+]1ccccc1/C=N\O
Reply: inactive

Query: Test call for this compound, please: NS(=O)(=O)c1cc([C@@]2(O)NC(=O)c3ccccc32)ccc1Cl
Reply: inactive

Query: I'd appreciate the recorded outcome for O=c1[nH]cnc2c1ncn2C1OC(CO)C(O)C1O (stereo unspecified) from this test.
Reply: inactive

Query: Hi, sorry to bother you, what did the test record for CC(C)NC[C@H](O)c1cc(O)cc(O)c1 ?
Reply: inactive

Query: Given CCN(CC)CCC[C@H](C)Nc1c2ccc(Cl)cc2nc2ccc(OC)cc12 , state the outcome it received in this test.
Reply: active

Query: Given O=C(c1ccccc1)c1ccc2n1CC[C@H]2C(=O)O , state the outcome it received in this test.
Reply: inactive

Query: Fill in: this test's call for C[C@H](NCCc1ccc(O)cc1)[C@@H](O)c1ccc(O)cc1 is ___
Reply: inactive

Query: I'd appreciate the recorded outcome for CC(C)(C)NC[C@H](O)c1cc(O)cc(O)c1 from this test.
Reply: inactive

Query: Short answer needed: outcome of this test for CCCN[C@@H](C)C(=O)Nc1c(C)csc1C(=O)OC ?
Reply: inactive

Query: In this assay, the call recorded for CC(=O)O[C@@H](C)C[N+](C)(C)C was what?
Reply: inactive
